- TEST SYSTEM: purified human MD-2 receptor (Homo sapiens, UniProt Q9Y6Y9)
- Sequence (Q9Y6Y9 19-160): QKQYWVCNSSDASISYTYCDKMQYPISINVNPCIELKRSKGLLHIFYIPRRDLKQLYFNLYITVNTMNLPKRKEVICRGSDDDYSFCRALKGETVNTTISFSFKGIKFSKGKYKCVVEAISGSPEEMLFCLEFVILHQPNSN
MEASURED ENDPOINT: pKd
Answers are plain numbers, as −log10 of the molar value.

QUERY: Which pKd is reported for this compound? CCCCCCCCCCCCCC(=O)NC1C(OC(=O)CCCCCCCCCCCCC)[C@H](OC(=O)CCCCCCCCCCCCC)C(CO)O[C@H]1OP(=O)(O)O (stereo partly shown)
RESULT: 5.19
